# Assayed target: hCCR4 (Chem5-hCCR4 cells) (Homo sapiens)
# Assay procedure: Calcium flux assay (CCL22-stimulated, FLIPR Calcium 6 dye)
# Format: cell-based
# Test conditions: Table 3, CCL22 1.5 nM, read-out: Potency (IC50)
Reported endpoint: IC50

As a guide, the following entries are already answered.
C[C@@H](Nc1nc(N2CC([C@H]3CCCN(CCO)C3)C2)ncc1C(F)(F)F)c1ccc(Cl)cc1Cl ... > 0.5 µM
C[C@@H](Nc1nc(N2CC([C@H]3CCCN([C@H]4C[C@@H](C(=O)O)C4)C3)C2)nc2ccccc12)c1ccc(Cl)cc1Cl ... < 0.1 µM
C[C@@H](Nc1nc(N2CC([C@H]3CCCN(CCO)C3)C2)nc2ccccc12)c1ccc(Cl)cc1Cl ... < 0.1 µM

Value of IC50 reported for the compound C[C@@H](Nc1nc(N2CC([C@H]3CCCN(CCO)C3)C2)nc2c1CCC2)c1ccc(Cl)cc1Cl is 0.1 to 0.5 µM

====

# Assayed target: hCCR4 (Chem5-hCCR4 cells) (Homo sapiens, UniProt P51679)
# Sequence (P51679 1-360): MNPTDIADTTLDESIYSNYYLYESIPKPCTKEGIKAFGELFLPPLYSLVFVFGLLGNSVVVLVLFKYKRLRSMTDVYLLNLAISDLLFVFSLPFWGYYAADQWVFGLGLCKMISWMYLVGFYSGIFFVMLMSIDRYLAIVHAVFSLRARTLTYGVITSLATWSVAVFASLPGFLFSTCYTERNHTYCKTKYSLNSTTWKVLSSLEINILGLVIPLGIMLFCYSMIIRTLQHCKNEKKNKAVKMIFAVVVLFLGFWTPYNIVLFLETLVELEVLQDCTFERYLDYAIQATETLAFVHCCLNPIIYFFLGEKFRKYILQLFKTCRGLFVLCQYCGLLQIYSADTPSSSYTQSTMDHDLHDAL
# Assay procedure: Calcium flux assay (CCL22-stimulated, FLIPR Calcium 6 dye)
# Type: cell-based
# Test conditions: Table 5, CCL22 1.5 nM, read-out: Potency (IC50)
pIC50: −log10 of the molar value.
Reported endpoint: pIC50

As a guide, the following entries are already answered.
C[C@@H](Nc1cc(C(F)(F)F)nc(N2CC([C@H]3CCCN([C@H]4C[C@](C)(C(=O)O)C4)C3)C2)n1)c1ccc(Cl)cc1Cl ... 6.30 to 7.00
CC(=O)c1cnc(N2CC([C@H]3CCCN(C4CC(C)(C(=O)O)C4)C3)C2)nc1N[C@H](C)c1ccc(Cl)cc1Cl (single isomer, unassigned) ... > 7.00

Let us examine a further case.
Value of pIC50 reported for the molecule C[C@@H](Nc1nc(N2CC([C@H]3CCCN([C@H]4C[C@](C)(C(=O)O)C4)C3)C2)ncc1C(O)C1CC1)c1ccc(Cl)cc1Cl (stereo partly drawn) is > 7.00

====

# Assayed target: hCCR4 (Chem5-hCCR4 cells) (Homo sapiens)
# Assay procedure: Calcium flux assay (CCL22-stimulated, FLIPR Calcium 6 dye)
# Assay type: cell-based
# Test conditions: Table 3, CCL22 1.5 nM, read-out: Potency (IC50)
pIC50: −log10 of the molar value.
Reported endpoint: pIC50

Considering C[C@@H](Nc1nc(N2CC(C3CCCN(CCN4CCCC4=O)C3C(=O)O)C2)ncc1Cl)c1ccc(Cl)cc1Cl (stereo partly drawn) , its pIC50 with hCCR4 (Chem5-hCCR4 cells) (Homo sapiens) was recorded as 6.30 to 7.00

Considering C[C@@H](Nc1nc(N2CC([C@H]3CCCN([C@H]4C[C@@](C)(C(=O)O)C4)C3)C2)nc2ccccc12)c1ccc(Cl)cc1Cl , its pIC50 with hCCR4 (Chem5-hCCR4 cells) (Homo sapiens) was recorded as > 7.00

Considering C[C@@H](Nc1nc(N2CC([C@H]3CCCN(CCO)C3)C2)ncc1C#N)c1ccc(Cl)cc1Cl , its pIC50 with hCCR4 (Chem5-hCCR4 cells) (Homo sapiens) was recorded as > 7.00

Considering C[C@@H](Nc1nc(N2CC([C@H]3CCCN([C@H]4C[C@](C)(C(=O)O)C4)C3)C2)nc(C(F)(F)F)c1Cl)c1ccc(Cl)cc1Cl , its pIC50 with hCCR4 (Chem5-hCCR4 cells) (Homo sapiens) was recorded as > 7.00

Considering C[C@@H](Nc1nc(N2CC([C@H]3CCCN([C@H]4C[C@](C)(C(=O)O)C4)C3)C2)ncc1Br)c1ccc(Cl)cc1Cl , its pIC50 with hCCR4 (Chem5-hCCR4 cells) (Homo sapiens) was recorded as > 7.00

Considering C[C@@H](Nc1nc(N2CC([C@H]3CCCN(CCO)C3)C2)cnc1C#N)c1ccc(Cl)cc1Cl , its pIC50 with hCCR4 (Chem5-hCCR4 cells) (Homo sapiens) was recorded as > 7.00

Considering C[C@@H](Nc1cnc(C#N)c(N2CC([C@H]3CCCN([C@H]4C[C@@H](C(=O)O)C4)C3)C2)n1)c1ccc(Cl)cc1Cl , its pIC50 with hCCR4 (Chem5-hCCR4 cells) (Homo sapiens) was recorded as < 6.30

Considering Cc1nc(N2CC([C@H]3CCCN([C@H]4C[C@@H](C(=O)O)C4)C3)C2)nc(N[C@H](C)c2ccc(Cl)cc2Cl)c1C , its pIC50 with hCCR4 (Chem5-hCCR4 cells) (Homo sapiens) was recorded as 6.30 to 7.00

Considering CCOC(=O)c1cnc(N2CC([C@H]3CCCN(CCO)C3)C2)nc1N[C@H](C)c1ccc(Cl)cc1Cl , its pIC50 with hCCR4 (Chem5-hCCR4 cells) (Homo sapiens) was recorded as > 7.00
